test system: SB.msgc-1; assay: viability at highest tested concentration (MAXR) relative to DMSO; higher = less cytotoxic; details: SB.msgc-1 (sporadic gastric cancer)
Structures can show the parent of a compound that is named as a salt.
Binary label based on viability with cut-off 70%: below gives Met, not below gives Not met.

Take a look at these entries with their results.
CC(NC(C)(C)C)C(=O)c1cccc(Cl)c1 (stereo unspecified) [Bupropion hydrochloride] (top concentration 46.0829 µM); Not met
N[S+]([O-])(=O)C1=C(Cl)C=C2\N=C/N[S+]([O-])(=O)C2=C1 [Chlorothiazide] (top concentration 46.0829 µM); Not met
CC1(C)O[C@@H]2C[C@H]3[C@@H]4CCC5=CC(=O)C=C[C@]5(C)[C@@]4(F)[C@@H](O)C[C@]3(C)[C@]2(C(=O)CO)O1 [Triamcinolone acetonide] (top concentration 46.0829 µM); Not met
C=CC(=O)Nc1cc(NC(=O)c2ccc(C)c(NC(=O)c3ccno3)c2)cc(C(F)(F)F)c1 (top concentration 46.0829 µM); Met
NC(=O)c1cccc(-c2cccc(OC(=O)NC3CCCCC3)c2)c1 [KDS-4103] (top concentration 46.0829 µM); Not met

Turning now to a further compound:
Consider the compound CN(C)c1nc(N(C)C)nc(N(C)C)n1 [Altretamine] (top concentration 46.0829 µM) . Is its viability strictly less than 70%?
Not met

----------
system: SB.msgc-1; assay: AC50 for growth inhibition (viability) (log10 M); higher = less potent; settings: SB.msgc-1 (sporadic gastric cancer)
Rule: AC50 for growth inhibition (log10 M) below -5 gives MET. Equal to or above -5 gives NOT MET.

Examples from the recorded data:
CCC[C@@H](NC(=O)[C@@H]1[C@H]2CCC[C@H]2CN1C(=O)[C@@H](NC(=O)[C@@H](NC(=O)c1cnccn1)C1CCCCC1)C(C)(C)C)C(=O)C(=O)NC1CC1 [Telaprevir]; NOT MET
C[C@H]1O[C@H]([C@H](O)[C@@H]1O)N2\C=C(F)/C(=O)NC2=O [Doxifluridine]; MET
CC1(C)OC/2=C(\[C@H](NCC3=CC=CC=C3)[C@@H]1O)C(=O)C4=CC=CC=C4C2=O; MET

AC50 for growth inhibition (log10 M) strictly < -5 for this molecule? C=C1/C(=C\C=C2/CCC[C@]3(C)[C@@H]([C@H](C)CCCC(C)(C)O)CC[C@@H]23)C[C@@H](O)C[C@@H]1O [Calcitriol]
MET

----------
tested on: SB.msgc-1; test: area under the dose-response curve of % viability (trapezoidal, 11 doses) (% viability x log10 concentration); higher = less cytotoxic; settings: SB.msgc-1 (sporadic gastric cancer)
Counter-ions that a name gives are not always drawn.
This section presents compounds with their documented area under the dose-response curve values.
// print number alone

CO/N=C(/C(=O)N[C@@H]1C(=O)N2C(C(=O)O)=C(CSC(=O)c3ccco3)CS[C@H]12)c1csc(N)n1 [Ceftiofur hydrochloride] (top concentration 46.0829 µM); 482
CCN1C[C@]2(OC(=O)c3ccccc3NC(C)=O)CC[C@H](OC)[C@@]34[C@@H]2C[C@@H]([C@@H]13)[C@@]1(O)C[C@H](OC)[C@H]2C[C@@H]4[C@]1(O)[C@H]2OC [Lappaconitine] (top concentration 46.0829 µM); 496
Cn1cnc(-c2cc3nccc(Oc4ccc(NC(=S)NC(=O)Cc5ccccc5)cc4F)c3s2)c1 [MGCD-265] (top concentration 46.0829 µM); 425

Hi! What's the reported area under the dose-response curve for O=C(Nc1cccc2c(=O)cc(-c3nnn[nH]3)oc12)c1ccc(OCCCCc2ccccc2)cc1 [Pranlukast hydrate] (top concentration 46.0829 µM) on SB.msgc-1?
316

Item c1cc(N[C@@H]2CCNC2)nc(-c2cnc3ccc(-c4cn[nH]c4)cn23)c1 (top concentration 46.0829 µM) with SB.msgc-1 - area under the dose-response curve?
524

----------
Recorded viability for the following molecules
test system: SB.msgc-1; experiment: viability at highest tested concentration (MAXR) relative to DMSO; higher = less cytotoxic; conditions: SB.msgc-1 (sporadic gastric cancer)

CNC(=O)Nc1ccc(-c2nc(N3CC4CCC(C3)O4)c3cnn(C4CCC5(CC4)OCCO5)c3n2)cc1 (top concentration 46.0829 µM); 40.1%
CN1CCc2c(n(Cc3ccc(C(=O)NO)cc3)c3ccccc23)C1 [Compound 7] (top concentration 46.0829 µM); 63%
CC(C)C(=O)Nc1ncc(-c2cc(C(F)F)nn2-c2c(Cl)cccc2Cl)s1 [BMS-5] (top concentration 46.0829 µM); 34.6%
C/C=C/C(=O)N(CC)c1ccccc1C [Crotamiton] (top concentration 46.0829 µM); 79.7%
COc1ccc(-c2ccc3c(N4CCOCC4)nc(N4C[C@@H](C)O[C@@H](C)C4)nc3n2)cc1CO (top concentration 46.0829 µM); 75.5%
OCc1ccc(-c2nn(Cc3ccccc3)c3ccccc23)o1 [Lificiguat] (top concentration 46.0829 µM); 84%
CC1(C)OC2CC3C4CC(F)C/5=C/C(=O)/C=C\C5(C)C4C(O)CC3(C)[C@@]2(O1)C(=O)CO (stereo partly specified) [Flunisolide] (top concentration 46.0829 µM); 121%
O=C(N[C@@H](c1ccccc1)[C@@H]1CCCCN1)c1cccc(C(F)(F)F)c1Cl (top concentration 46.0829 µM); 76.3%

Now consider a different molecule.
Would you mind telling me what viability value was observed for CC/1=C(/C(CC(=O)N1)C2=CC=C(C=C2)C(F)(F)F)C(=O)NC3=C(F)C=C4[NH]N=CC4=C3 (stereo unspecified) (top concentration 46.0829 µM) ?
78.2%

----------
test system: SB.msgc-1; experiment: area under the dose-response curve of % viability (trapezoidal, 11 doses) (% viability x log10 concentration); higher = less cytotoxic; details: SB.msgc-1 (sporadic gastric cancer)
READOUT_KIND: area under the dose-response curve
Provide a numeric answer; units are not to be included.

Consider the reported area under the dose-response curve for these compounds:
C[C@]12CC[C@@H]3c4ccc(O)cc4CC[C@H]3[C@@H]1[C@@H](O)[C@@H](O)[C@@H]2O [Estetrol] (top concentration 46.0829 µM); 549
OC(=O)C(CC/1=C/C(=O)NC2=CC=CC=C12)NC(=O)C3=CC=C(Cl)C=C3 (stereo unspecified) [Rebamipide] (top concentration 46.0829 µM); 446
Cc1ccccc1C(=O)c1ccc(Nc2ccc(Br)cc2N)cc1Cl [EO-1428] (top concentration 46.0829 µM); 528
C[C@@H](O)[C@@H]1NC(=O)[C@H](CCCCN)NC(=O)[C@@H](Cc2c[nH]c3ccccc23)NC(=O)[C@H](Cc2ccccc2)NC(=O)[C@@H](NC(=O)[C@H](N)Cc2ccccc2)CSSC[C@@H](C(=O)N[C@H](CO)[C@@H](C)O)NC1=O [Octreotide] (top concentration 46.0829 µM); 345
COC(=O)[C@H](c1ccccc1Cl)N1CCc2sccc2C1 [Clopidogrel bisulfate] (top concentration 46.0829 µM); 542

Param item = O=C(O)c1cc(O)c2c(c1)C(=O)c1cccc(O)c1C2=O [Rhein] (top concentration 92.1659 µM) ; retrieve measured area under the dose-response curve.
570

----------
system: SB.mhdgc-1; test: area under the dose-response curve of % viability (trapezoidal, 11 doses) (% viability x log10 concentration); higher = less cytotoxic; details: SB.mhdgc-1 (hereditary c.1380delA CDH1 gastric cancer)
READOUT_KIND: area under the dose-response curve
Number, no unit, nothing else.

As a guide, the following entries are already answered.
CCOc1cc(N2CCC(O)CC2)ccc1Nc1ncc2c(n1)N(C)c1ccccc1C(=O)N2C [XMD8-92] (top concentration 46.0829 µM); 423
CC1Cc2ccccc2N1NC(=O)c1ccc(Cl)c([S+](N)(=O)[O-])c1 (stereo not drawn) [Indapamide] (top concentration 46.0829 µM); 597

Shifting focus to the compound that follows.
Please report the recorded area under the dose-response curve for COC(=O)Nc1nc2cc(C(=O)c3ccc(F)cc3)ccc2[nH]1 [Flubendazole] (top concentration 46.0829 µM) .
419

----------
tested on: SB.msgc-1; assay: area under the dose-response curve of % viability (trapezoidal, 11 doses) (% viability x log10 concentration); higher = less cytotoxic; conditions: SB.msgc-1 (sporadic gastric cancer)
READOUT_KIND: area under the dose-response curve
Reply: number alone, nothing else.

Would you please look over these solved cases?
CCCCC(=O)O[C@]1(C(=O)CO)[C@H](C)C[C@H]2[C@@H]3CCC4=CC(=O)C=C[C@]4(C)[C@@]3(F)[C@@H](O)C[C@@]21C [Betamethasone valerate] (top concentration 46.0829 µM); 543
CC(C)(C(=O)NCC(F)(F)C(F)(F)F)C(=O)N[C@@H]1C(=O)Nc2ccccc2-c2ccccc21 (top concentration 46.0829 µM); 452
COC(=O)C\1=C(C)\N\C(=C(/C1C2=CC=CC3=NON=C23)C(=O)OC(C)C)C (stereo unspecified) [Isradipine] (top concentration 46.0829 µM); 292

Quick check: area under the dose-response curve of COc1cc2c(Oc3ccc4[nH]c(C)cc4c3F)ncnc2cc1OCCCN1CCCC1 [Cediranib] (top concentration 46.0829 µM) ?
470

Look up area under the dose-response curve: O=C1Nc2cc(Br)ccc2/C1=C1/Nc2ccccc2/C1=N\O [BIO] (top concentration 46.0829 µM)
474

Please give the measured area under the dose-response curve for this compound: CNC(=O)c1ccccc1Nc1nc(Nc2ccc(N3CCOCC3)cc2OC)ncc1Cl [NVP-TAE226] (top concentration 46.0829 µM)
448
